Record form. Attribute: median fluorescence fold over isotype control. Fill in for each entry.
biological target: SARS-CoV-2 full length spike protein, V483A mutant, expressed on CHO cells (SARS-CoV-2, UniProt P0DTC2 14-1273)
Answers are plain numbers, in fold over isotype.

binder	value-measured
antibody 409 (antibody, V domains shown) VH: QVTLRESGPALVKPTQTLTLTCTFSGFSLSTSGMCVSWIRQPPGKALEWLALIDWDDDKYYSTSLKTRLTISKDTSKNQVVLTMTNMDPVDTATYYCARTTYYYVSGRRAEFDPWGQGTLVTVSS VL: NFMLTQPHSVSESPGKTVTISCTGSSGSIASNYVQWYQQRPGSAPTTVIYEDNQRPSGVPDRFSGSIDSSSNSASLTISGLKTEDEADYYCQSYDSSNQGVFGGGTKLTVL	9.21
antibody 378 (antibody, V domains shown) VH: QVQLVQSGAEVKKPGASVKVSCKASGYTFTSYYMHWVRQAPGQGLEWMGIINPSGGSTSYAQKFQGRVTMTRDTSTSTVYMELSSLRSEDTAVYYCARDSGGMDDFWSGYYSPGGDYWGQGTLVTVSS VL: QSALTQPASVSGSPGQSITISCTGTSSDVGSYNLVSWYQQHPGKAPKLMIYEGSKRPSGVSNRFSGSKSGNTASLTISGLQAEDEADYYCCSYAGSSTWVFGGGTKLTVL	14.3

Query: Item antibody 367 (antibody, V domains shown) VH: QVQLVQSGAEVKKPGASVKVSCKASGYTFTGYYIHWVRQAPGQGLEWMGWINPNSGGTIYAQKFQGRVTMTRDTSISTAYMELSRLTSDDTAVYSCAREPYYDILTGYYAPRRYFDYWGQGTLVTVSS VL: QSALTQPASVSGSPGQSITISCTGTSSDVGSYNYVSWYLQHPGKAPKLMIYDVSNRPSGVSNRFSGSKSGNTASLTISGLQAEDEADFYCSSYTSRSTYVFGTGTKVTVL : provide median fluorescence fold over isotype control
Response: 16.3
